# %Inh annotations
test system: VRK2; conditions: concentration: 1 μM, replicates: in singlicate; n = 1;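 also: KINOMEscan kinase panel screen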
Answer format: numeric, % implied, no suffix.

Solved entries (count: 5):
{"compound": "CC(C)(C)c1ccc(C(=O)Nc2cn3cc(-c4ccccc4)ccc3n2)cc1", "%Inh (%)": 1}
{"compound": "CCn1c(-c2nonc2N)nc2ccccc21 [SB-693162/GW549034]", "%Inh (%)": 0}
{"compound": "O=C(Nc1n[nH]c2nc(-c3ccccc3)c(Cl)cc12)C1CC1 [SB-734909]", "%Inh (%)": 0}
{"compound": "O=C(Nc1n[nH]c2nc(-c3ccccc3)c(Br)cc12)C1CC1 [SB-708998]", "%Inh (%)": 0}
{"compound": "COc1cc2ncn(-c3cc(OCc4ccc(S(C)(=O)=O)cc4)c(C(N)=O)s3)c2cc1OC [GW869979]", "%Inh (%)": 2}

Here is the next item to consider.
Measured %Inh of `CCCNC(=O)Nc1ccc(Oc2ncnc3ccn(C)c23)cc1` : 0

---

test system: RIPK2; details: concentration: 1 μM, replicates: in singlicate; n = 1
quantity kind: %Inh (%)
Answer format: numeric, % implied, no suffix.

{"compound": "CCC(=O)c1c(-c2ccccc2)c2cc(Cl)ccc2c(=O)n1Cc1cc(S(C)(=O)=O)n(CC(F)F)n1", "%Inh, %": 2}
{"compound": "Nc1nccc2scc(-c3ccc4c(c3)CCN4C(=O)Cc3ccccc3)c12", "%Inh, %": 58}
{"compound": "CCS(=O)c1ccc(-c2coc3ccc(-c4nnc(C)o4)cc23)cc1 (centres unmarked)", "%Inh, %": 0}
{"compound": "CCC(=O)c1c(-c2ccccc2)c2cc(Cl)ccc2c(=O)n1Cc1cc(S(C)(=O)=O)n(CC(N)=O)n1", "%Inh, %": 0}

Here is the next item to consider.
The value of %Inh recorded for `COc1cc(Nc2ccnc3ccc(C(F)(F)F)cc23)cc(OC)c1OC` when tested on RIPK2 reads 64

---

tested on: DDR1; conditions: concentration: 1 μM, replicates: in singlicate; n = 1
quantity kind: %Inh (%)
Answer format: numeric, % implied, no suffix.

Solved entries (count: 5):
{"compound": "Nc1nccc2scc(-c3ccc4c(c3)CCN4C(=O)Cc3ccccc3)c12", "unit abbrev": "%", "%Inh": 43}
{"compound": "Nc1nc(N)c2nc(-c3ccccc3)[nH]c2n1", "unit abbrev": "%", "%Inh": 0}
{"compound": "COc1cc(Nc2nccc(N3CCC(NC(=O)C(C)c4ccc(Cl)cc4)C3)n2)cc(OC)c1OC (centres unmarked)", "unit abbrev": "%", "%Inh": 0}
{"compound": "Cc1nnc(-c2ccc(C)c(-c3ccc(C(=O)O)cc3)c2)o1", "unit abbrev": "%", "%Inh": 7}
{"compound": "COc1cc2ncn(-c3cc(OCc4ccc(S(C)(=O)=O)cc4)c(C(N)=O)s3)c2cc1OC", "unit abbrev": "%", "%Inh": 20}

The value of %Inh recorded for `COc1cc(Nc2ccnc3ccc(C(F)(F)F)cc23)cc(OC)c1OC` when tested on DDR1 reads 0

The value of %Inh recorded for `Cc1cc(Nc2nc(-c3cccc(C)n3)nc3ccccc23)ccn1` when tested on DDR1 reads 0

The value of %Inh recorded for `CCc1ccc(-c2ccc3c(c2)-c2nn(C)cc2S(=O)(=O)N3C)cc1` when tested on DDR1 reads 0
